The reported measurements were obtained from paper PMC8595303.

biological target: T1, human mature TGFβ3 (Homo sapiens, UniProt P10600); test: SPR; Biacore T200; antibody captured on a Protein A sensor chip (about 90 RU); mature TGFβ isoform injected, five-fold dilutions 0.008 nM to 5 nM; HBS-EP pH 7.4, 150 mM NaCl; 37 °C; 100 μl/min; 3 min association, 60 min dissociation; one-to-one Langmuir model, global fit; details: both partners purified
T1 construct: Transforming Growth Factor-beta 3, human, mature form (cut from the precursor); also called TGFb3; source: bought: PeproTech
T1 sequence (P10600 301-412): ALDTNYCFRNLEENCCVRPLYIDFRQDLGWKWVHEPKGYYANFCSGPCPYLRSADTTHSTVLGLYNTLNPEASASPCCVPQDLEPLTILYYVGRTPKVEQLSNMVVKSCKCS
Please provide measured Kd for the entries that follow.
All answers are understood in pM, so give the number only.

Req: Entry under review: h4A11.v2.3 (antibody, V domains shown, as the VH of m7 (h4A11.v2) with the stated change; numbers count on: Kabat numbering of the heavy chain; as the VL of m7 (h4A11.v2); human IgG1; also called v2.3_Q81A; source: Expi293F, transient, purified (Protein A, SEC)) VH: EQQLVESGGGLVQPGGSLRLSCAVSGFSLSSYTVNWVRQAPGKGLEWIGYISYGGSAYYASWANGRFTISKDSAKNSVYLAMNSLRAEDTAVYFCARHMQVGGAPTGSMAAFDPWGPGTLVTVSS VL: DAQLTQSPSSLSASVGDRVTITCQSSQSVYNNNYLSWFQQKPGKPPKLLIYGASTLTSGVPSRFSGSGSGTDFTLTISSLQPEDFATYYCAGGYSGSSDKYAFGGGTKVEIK . Reported Kd?
Resp: 5.5

Req: Entry under review: h4A11.v7.3 (antibody, V domains shown, as the VH of m12 (h4A11.v7); numbers count on: Kabat numbering of the heavy chain; as the VL of m12 (h4A11.v7); human IgG1; also called v7.3_S19R, S79Y, K81Q; source: Expi293F, transient, purified (Protein A, SEC)) VH: EQQLQESGPGLVKPSETLRLTCTVTGFSLSSYTVNWVRQPAGKGLEWIGYISYGGSAYYASWANGRFTISKDSSKNQVYLQLSSVTAADTAVYFCARHMQVGGAPTGSMAAFDPWGPGTLVTVSS VL: EAVLTQSPGTLSLSPGERATLSCQSSQSVYNNNYLSWFQQKPGQPPRLLIYGASTLTSGVPDRFSGSGSGTDFTLTISRLEPEDFAVYYCAGGYSGSSDKYAFGGGTKVEIK . Reported Kd?
Resp: 8
